target.or.system: hTREX1 (Homo sapiens, UniProt Q9NSU2)
Construct: host or cells: HCT116 dual cells
Sequence (Q9NSU2 whole entry): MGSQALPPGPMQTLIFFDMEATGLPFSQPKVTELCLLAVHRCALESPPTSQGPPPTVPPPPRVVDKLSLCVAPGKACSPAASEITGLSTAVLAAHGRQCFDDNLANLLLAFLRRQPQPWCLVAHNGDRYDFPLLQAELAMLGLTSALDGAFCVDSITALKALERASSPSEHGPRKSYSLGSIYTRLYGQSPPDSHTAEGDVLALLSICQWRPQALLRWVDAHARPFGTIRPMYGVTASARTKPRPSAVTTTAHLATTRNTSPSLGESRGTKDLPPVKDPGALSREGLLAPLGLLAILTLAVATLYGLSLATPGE
test.protocol: hTREX1 HCT116 Cell Assay (HCT116 dual cells, Lucia luciferase reporter of Type I interferon induction)
Type: cell-based
condition.description: TREX1i 4 h before pBR322/BstNI transfection, read after 48 h
pIC50: −log10 of the molar value.
experimental.readout: pIC50

• CC(c1nc(C(=O)Nc2cnoc2)c(O)c(=O)n1C)C(c1cnn(C(C)(C)CC#N)c1)c1cc(F)ccc1Cl (single isomer, unassigned) = < 7.00
• CC(c1nc(C(=O)Nc2cnoc2)c(O)c(=O)n1C)C(c1cnn(CCOC(F)(F)F)c1)c1cc(F)ccc1C#N (single isomer, unassigned) = 7.00 to 8.00
• Cc1cc(C(c2ccccc2C#N)C(C)c2nc(C(=O)Nc3cnoc3)c(O)c(=O)n2C)n(C)n1 (single isomer, unassigned) = > 8.00
• Cc1nc(C)c(C(c2ccccc2C#N)C(C)c2nc(C(=O)Nc3cnoc3)c(O)c(=O)n2C)nc1C (single isomer, unassigned) [Example 122 D2E1] = < 7.00
• Cc1n[nH]c(C)c1C(c1ccccc1C#N)C(C)c1nc(C(=O)Nc2cnoc2)c(O)c(=O)n1C (single isomer, unassigned) [Example 95 D1E2] = < 7.00
• Cc1nnc(C(c2ccccc2Cl)C(C)c2nc(C(=O)Nc3cnoc3)c(O)c(=O)n2C)o1 (single isomer, unassigned) = < 7.00
• Cc1nn(C)c(C)c1C(c1cc(F)ccc1Cl)C(C)c1nc(C(=O)Nc2cnoc2)c(O)c(=O)n1C (single isomer, unassigned) = < 7.00
• CC(c1nc(C(=O)Nc2cnoc2)c(O)c(=O)n1C)C(c1ncn(C)n1)c1ccccc1C#N (single isomer, unassigned) = 7.00 to 8.00

Give its pIC50 value. Item: CC(c1nc(C(=O)Nc2cnoc2)c(O)c(=O)n1C)C(c1cnn(CCN2CCOCC2)c1)c1ccccc1C#N (single isomer, unassigned)
7.00 to 8.00

Check Cc1cnc(C)c(C(c2cc(F)ccc2C#N)C(C)c2nc(C(=O)Nc3cnoc3)c(O)c(=O)n2C)n1 (single isomer, unassigned) [Example 119 D2E2] too.
< 7.00

Queued: CC(c1nc(C(=O)Nc2cnoc2)c(O)c(=O)n1C)C(c1cnn(CC(C)(C)O)c1)c1ccccc1Cl (single isomer, unassigned)
< 7.00

###

target.or.system: full length human TREX1 (Homo sapiens, UniProt Q9NSU2)
Construct: N-terminally His-Tev tagged full length human TREX1; made in house; host or cells: E. coli
Sequence (Q9NSU2 whole entry): as above
test.protocol: hTREX1 Biochemical Assay (fluorescence, dsDNA substrate degradation)
condition.description: biochemical, read-out: hTREX1 IC50
pIC50: −log10 of the molar value.
Each entry below lists one item and its recorded pIC50 value.

* CC(c1nc(C(=O)Nc2cnoc2)c(O)c(=O)n1C)C(c1ccccc1C#N)c1nnnn1C (single isomer, unassigned) [Example 131 D2E1] | < 8.00
* CCn1c(C(C)C(c2cnn(C)c2)c2ccccc2C#N)nc(C(=O)Nc2cnoc2)c(O)c1=O (single isomer, unassigned) [Example 149 D1E2] | > 9.00
* CC(c1nc(C(=O)Nc2cnoc2)c(O)c(=O)n1C)C(c1cnn(C)c1)c1cc(F)ccc1C#N (single isomer, unassigned) [Example 14 D1E2] | > 9.00
* CC(c1nc(C(=O)Nc2cnoc2)c(O)c(=O)n1C)C(c1ccccc1Cl)n1cnc2ccccc21 (single isomer, unassigned) [Example 143 D1E1] | > 9.00
* CC(c1nc(C(=O)Nc2cnoc2)c(O)c(=O)n1C)C(c1cnn(CC2COC2)c1)c1ccccc1Cl (single isomer, unassigned) [Example 88 D1E1] | > 9.00

I would be grateful if you could share the reported pIC50 for Cc1cc(C(c2cc(F)ccc2C#N)C(C)c2nc(C(=O)Nc3cnoc3)c(O)c(=O)n2C)n(C)n1 (single isomer, unassigned) [Example 111 D2E1] .
> 9.00

Another molecule: COCCCn1cc(C(c2ccccc2C#N)C(C)c2nc(C(=O)Nc3cnoc3)c(O)c(=O)n2C)cn1 (single isomer, unassigned) [Example 24 D1E1]
> 9.00

###

target.or.system: full length human TREX1 (Homo sapiens)
Construct: N-terminally His-Tev tagged full length human TREX1; made in house; host or cells: E. coli
test.protocol: hTREX1 Biochemical Assay (fluorescence, dsDNA substrate degradation)
condition.description: biochemical, read-out: hTREX1 IC50
Listed here: items and their measured IC50.

- CC(c1nc(C(=O)Nc2cnoc2)c(O)c(=O)n1C)C(c1cnn(C)c1)c1ccc(O)cc1C#N (single isomer, unassigned) [Example 80 D1E2]: > 10 nM
- CC(c1nc(C(=O)Nc2cnoc2)c(O)c(=O)n1C)C(c1cnn(CCN(C)C)c1)c1ccccc1C#N (single isomer, unassigned) [Example 33 D1E2]: > 10 nM
- CC(c1nc(C(=O)Nc2cnoc2)c(O)c(=O)n1C)C(c1ncn(C)n1)c1ccccc1C#N (single isomer, unassigned) [Example 51 D1E2]: 1 to 10 nM

Now consider a different molecule.
Using the record for CC(c1nc(C(=O)Nc2cnoc2)c(O)c(=O)n1C)C(c1cnn(C)c1)c1ccc(C(F)(F)F)cc1C#N (single isomer, unassigned) [Example 30 D2E1] , report its IC50.
> 10 nM

###

Attribute: IC50
target.or.system: full length mouse TREX1 (Mus musculus, UniProt Q91XB0)
Construct: N-terminally His-Tev tagged full length mouse TREX1; made in house; host or cells: E. coli
Sequence (Q91XB0 1-314): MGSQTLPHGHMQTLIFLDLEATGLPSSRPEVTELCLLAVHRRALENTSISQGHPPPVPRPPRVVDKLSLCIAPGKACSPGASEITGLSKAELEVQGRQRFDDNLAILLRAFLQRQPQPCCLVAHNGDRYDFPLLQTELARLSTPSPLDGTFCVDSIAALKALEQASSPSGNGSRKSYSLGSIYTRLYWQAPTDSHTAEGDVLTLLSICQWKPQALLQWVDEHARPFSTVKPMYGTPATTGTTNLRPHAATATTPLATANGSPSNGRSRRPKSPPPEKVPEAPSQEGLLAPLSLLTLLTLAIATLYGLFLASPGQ
test.protocol: mTREX1 Biochemical Assay (fluorescence, dsDNA substrate degradation)
condition.description: biochemical, read-out: mTREX1 IC50

Sample answers from the record:
* CC(c1nc(C(=O)Nc2cnoc2)c(O)c(=O)n1C)C(c1cnn(C(F)(F)F)c1)c1ccccc1C#N (single isomer, unassigned) [Example 151 D1E1] | < 1 nM
* CC(c1nc(C(=O)Nc2cnoc2)c(O)c(=O)n1C)C(c1ccccc1Cl)n1nccc1C#N (single isomer, unassigned) [Example 140 D1E1] | 1 to 10 nM
* Cc1cnc(C)c(C(c2cc(F)ccc2C#N)C(C)c2nc(C(=O)Nc3cnoc3)c(O)c(=O)n2C)n1 (single isomer, unassigned) [Example 119 D2E1] | > 10 nM
* CC(c1nc(C(=O)Nc2cnoc2)c(O)c(=O)n1C)C(c1cnn(CCN2CCN(C)CC2)c1)c1ccccc1C#N (single isomer, unassigned) [Example 32 D2E1] | > 10 nM

May I ask what IC50 has been recorded for Cc1cn(C(c2ccccc2Cl)C(C)c2nc(C(=O)Nc3cnoc3)c(O)c(=O)n2C)cn1 (single isomer, unassigned) [Example 142 D1E1] ?
> 10 nM

Proceed to CC(c1nc(C(=O)Nc2cnoc2)c(O)c(=O)n1C)C(c1cnn(C)c1)c1cc(F)c(F)cc1C#N (single isomer, unassigned) [Example 25 D1E1]
1 to 10 nM

Now give it for Cc1cnc(C(c2ccccc2Cl)C(C)c2nc(C(=O)Nc3cnoc3)c(O)c(=O)n2C)cn1 (single isomer, unassigned) [Example 116 D1E1] too.
> 10 nM

Next compound: COCCn1ncc(C(c2ccccc2C#N)C(C)c2nc(C(=O)Nc3cnoc3)c(O)c(=O)n2C)c1C (single isomer, unassigned) [Example 69 D2E1]
> 10 nM

Next compound: Cc1cncc(C(c2ccccc2C#N)C(C)c2nc(C(=O)Nc3cnoc3)c(O)c(=O)n2C)n1 (single isomer, unassigned) [Example 53 D2E1]
> 10 nM

###

target.or.system: full length mouse TREX1 (Mus musculus, UniProt Q91XB0)
Construct: N-terminally His-Tev tagged full length mouse TREX1; made in house; host or cells: E. coli
test.protocol: mTREX1 Biochemical Assay (fluorescence, dsDNA substrate degradation)
condition.description: biochemical, read-out: mTREX1 IC50
pIC50: −log10 of the molar value.
Listing of entries alongside the reported pIC50.

* Cc1ccn(C(c2ccccc2C#N)C(C)c2nc(C(=O)Nc3cnoc3)c(O)c(=O)n2C)n1 (single isomer, unassigned) [Example 132 D1E2] | 8.00 to 9.00
* Cc1cnn(C(c2ccccc2Cl)C(C)c2nc(C(=O)Nc3cnoc3)c(O)c(=O)n2C)c1 (single isomer, unassigned) [Example 133 D1E1] | < 8.00
* CC(c1nc(C(=O)Nc2cnoc2)c(O)c(=O)n1C)C(c1cnn(CC(F)F)c1)c1cc(F)ccc1C#N (single isomer, unassigned) [Example 102 D1E2] | 8.00 to 9.00
* CC(c1nc(C(=O)Nc2cnoc2)c(O)c(=O)n1C)C(c1cnn(C(C)(C)CC#N)c1)c1cc(F)ccc1Cl (single isomer, unassigned) [Example 100 D1E2] | < 8.00
* CC(c1nc(C(=O)Nc2cnoc2)c(O)c(=O)n1C)C(c1cnn(C)c1)c1ccncc1C#N (single isomer, unassigned) [Example 8 D2E2] | < 8.00
* Cc1cnc(C)c(C(c2ccccc2Cl)C(C)c2nc(C(=O)Nc3cnoc3)c(O)c(=O)n2C)n1 (single isomer, unassigned) [Example 120 D2E2] | < 8.00

Looking for the measured pIC50 of Cc1cc(C(c2ccccc2C#N)C(C)c2nc(C(=O)Nc3cnoc3)c(O)c(=O)n2C)n(C)n1 (single isomer, unassigned) [Example 63 D2E1] , can you help?
< 8.00

Can you handle Cc1cc(C(c2cc(F)ccc2C#N)C(C)c2nc(C(=O)Nc3cnoc3)c(O)c(=O)n2C)n(C)n1 (single isomer, unassigned) [Example 111 D2E2] next?
< 8.00

Subsequent entry: CC(c1nc(C(=O)Nc2cnoc2)c(O)c(=O)n1C)C(c1cnn(C)c1)c1ccc(C(=O)N(C)C)cc1C#N (single isomer, unassigned) [Example 11 D2E2]
< 8.00

Also need CC(c1nc(C(=O)Nc2cnoc2)c(O)c(=O)n1C)C(c1cnn(C)c1)c1ccc(C(=O)N(C)C)cc1C#N (single isomer, unassigned) [Example 11 D1E1] , thanks.
> 9.00

Try this molecule too: Cc1cnc(C(c2cc(F)ccc2C#N)C(C)c2nc(C(=O)Nc3cnoc3)c(O)c(=O)n2C)cn1 (single isomer, unassigned) [Example 115 D1E2]
8.00 to 9.00
